Tested on: SK-BR-3
Assay: Cytotoxicity against human SKBR3 cells after 48 hrs by SRB assay
Type: functional
Details: SK-BR-3, 48 h, read-out: LC50 (the source's name)
Readout label: log10(CC50) (log10 of the value in nM)

- Compound: "C/C=C1\\NC(=O)[C@H](Cc2ccccc2)NC(=O)[C@@H](C(C)C)NC(=O)[C@@H]([C@H](C)CC)NC(=O)[C@H](NC(=O)[C@H](NC(=O)[C@H](CCCN)NC(=O)[C@H]2CCCN2C(=O)[C@H](NC(=O)[C@@H](NC(=O)[C@@H](NC(=O)[C@H](NC(=O)CCCC(C)C)C(C)C)[C@@H](C)O)C(C)C)C(C)C)[C@H](C)CC)[C@H](C)OC(=O)[C@H](C(C)C)NC1=O [KAHALALIDE F]"
  Measured on: "SK-BR-3"
  log10(CC50): 3.30
- Compound: "C/C=C1\\NC(=O)[C@H](Cc2ccccc2)NC(=O)[C@@H](C(C)C)NC(=O)[C@@H]([C@H](C)CC)NC(=O)[C@H](NC(=O)[C@H](NC(=O)[C@H](CCCN)NC(=O)[C@H]2CCCN2C(=O)[C@H](NC(=O)[C@@H](NC(=O)[C@@H](NC(=O)[C@H](NC(=O)CCCC(C)C)C(C)C)C(C)C)C(C)C)C(C)C)[C@H](C)CC)[C@H](C)OC(=O)[C@H](C(C)C)NC1=O"
  Measured on: "SK-BR-3"
  log10(CC50): 1.88
- Compound: "C/C=C1\\NC(=O)[C@H](Cc2ccc(OC)cc2)NC(=O)[C@@H](C(C)C)NC(=O)[C@@H]([C@H](C)CC)NC(=O)[C@H](NC(=O)[C@H](NC(=O)[C@H](CCCN)NC(=O)[C@H]2CCCN2C(=O)[C@H](NC(=O)[C@@H](NC(=O)[C@@H](NC(=O)[C@H](NC(=O)CC[C@@H](C)CC)C(C)C)[C@@H](C)O)C(C)C)C(C)C)[C@H](C)CC)[C@H](C)OC(=O)[C@H](C(C)C)NC1=O"
  Measured on: "SK-BR-3"
  log10(CC50): 2.92
- Compound: "C/C=C1\\NC(=O)[C@H](Cc2ccc(I)cc2)NC(=O)[C@@H](C(C)C)NC(=O)[C@@H]([C@H](C)CC)NC(=O)[C@H](NC(=O)[C@H](NC(=O)[C@H](CCCN)NC(=O)[C@H]2CCCN2C(=O)[C@H](NC(=O)[C@@H](NC(=O)[C@@H](NC(=O)[C@H](NC(=O)CC[C@@H](C)CC)C(C)C)[C@@H](C)O)C(C)C)C(C)C)[C@H](C)CC)[C@H](C)OC(=O)[C@H](C(C)C)NC1=O"
  Measured on: "SK-BR-3"
  log10(CC50): 2.51
- Compound: "CC[C@@H](C)[C@@H](NC(=O)[C@H](CCCN)NC(=O)[C@H]1CCCN1C(=O)[C@H](NC(=O)[C@@H](NC(=O)[C@@H](NC(=O)[C@H](NC(=O)CCCC(C)C)C(C)C)[C@@H](C)O)C(C)C)C(C)C)C(=O)N[C@H]1C(=O)N[C@H]([C@H](C)CC)C(=O)N[C@H](C(C)C)C(=O)N[C@@H](Cc2ccccc2)C(=O)N[C@H]([C@H](C)O)C(=O)N[C@@H](C(C)C)C(=O)O[C@H]1C"
  Measured on: "SK-BR-3"
  log10(CC50): 3.27

---

Tested on: K562
Experiment: Cytotoxicity against human K562 cells after 48 hrs by SRB assay
Format: functional
Details: K562, 48 h

- Molecule: "C/C=C1\\NC(=O)[C@H](Cc2ccccc2)NC(=O)[C@@H](C(C)C)NC(=O)[C@@H]([C@H](C)CC)NC(=O)[C@H](NC(=O)[C@H](NC(=O)[C@H](CCCN)NC(=O)[C@H]2CCCN2C(=O)[C@H](NC(=O)[C@@H](NC(=O)[C@@H](NC(=O)[C@H](NC(=O)CCCC(C)C)C(C)C)[C@@H](C)O)C(C)C)C(C)C)[C@H](C)CC)[C@H](C)OC(=O)[C@H](C(C)C)NC1=O [KAHALALIDE F]"
  GI50 (nM): 1930
- Molecule: "C/C=C1\\NC(=O)[C@H](Cc2ccccc2)NC(=O)[C@@H](C(C)C)NC(=O)[C@@H]([C@H](C)CC)NC(=O)[C@H](NC(=O)[C@H](NC(=O)[C@H](CCCN)NC(=O)[C@H]2CCCN2C(=O)[C@H](NC(=O)[C@@H](NC(=O)[C@@H](NC(=O)[C@H](NC(=O)C(F)(F)C(F)(F)C(F)(F)C(F)(F)C(F)(F)C(F)(F)F)C(C)C)[C@@H](C)O)C(C)C)C(C)C)[C@H](C)CC)[C@H](C)OC(=O)[C@H](C(C)C)NC1=O"
  GI50 (nM): 830

---

Each entry below carries its recorded CC50.
Tested on: DU-145
Test: Cytotoxicity against human DU145 cells after 48 hrs by SRB assay
Type: functional, cell-based
Settings: Homo sapiens, DU-145, 48 h; read-out: LC50 (the source's name)
Readout label: CC50 (nM)

- Compound smiles: "C/C=C1\\NC(=O)[C@H](Cc2ccccc2)NC(=O)[C@@H](C(C)C)NC(=O)[C@@H]([C@H](C)CC)NC(=O)[C@H](NC(=O)[C@H](NC(=O)[C@H](CCCN)NC(=O)[C@H]2CCCN2C(=O)[C@H](NC(=O)[C@@H](NC(=O)[C@@H](NC(=O)[C@H](N)C(C)C)[C@@H](C)O)C(C)C)C(C)C)[C@H](C)CC)[C@H](C)OC(=O)[C@H](C(C)C)NC1=O"
  Units of measure: "nM"
  Experimental result: 1840
- Compound smiles: "C/C=C1\\NC(=O)[C@H](CCC2CCCCC2)NC(=O)[C@@H](C(C)C)NC(=O)[C@@H]([C@@H](C)CC)NC(=O)[C@H](NC(=O)[C@H](NC(=O)[C@H](CCCN)NC(=O)[C@H]2CCCN2C(=O)[C@H](NC(=O)[C@@H](NC(=O)[C@@H](NC(=O)[C@H](NC(=O)CCCC(C)C)C(C)C)[C@@H](C)O)C(C)C)C(C)C)[C@@H](C)CC)[C@@H](C)OC(=O)[C@H](C(C)C)NC1=O"
  Units of measure: "nM"
  Experimental result: 553
- Compound smiles: "C/C=C1\\NC(=O)[C@H](Cc2c(F)c(F)c(F)c(F)c2F)NC(=O)[C@@H](C(C)C)NC(=O)[C@@H]([C@H](C)CC)NC(=O)[C@H](NC(=O)[C@H](NC(=O)[C@H](CCCN)NC(=O)[C@H]2CCCN2C(=O)[C@H](NC(=O)[C@@H](NC(=O)[C@@H](NC(=O)[C@H](NC(=O)CC[C@@H](C)CC)C(C)C)[C@@H](C)O)C(C)C)C(C)C)[C@H](C)CC)[C@H](C)OC(=O)[C@H](C(C)C)NC1=O"
  Units of measure: "nM"
  Experimental result: 1000
- Compound smiles: "C/C=C1\\NC(=O)[C@H](Cc2ccccc2)NC(=O)[C@@H](C(C)C)NC(=O)[C@@H]([C@H](C)CC)NC(=O)[C@H](NC(=O)[C@H](NC(=O)[C@H](CCCC[N+](C)(C)C)NC(=O)[C@H]2CCCN2C(=O)[C@H](NC(=O)[C@@H](NC(=O)[C@@H](NC(=O)[C@H](NC(=O)CC[C@@H](C)CC)C(C)C)[C@@H](C)O)C(C)C)C(C)C)[C@H](C)CC)[C@H](C)OC(=O)[C@H](C(C)C)NC1=O"
  Units of measure: "nM"
  Experimental result: 880
- Compound smiles: "C/C=C1\\NC(=O)[C@H](Cc2ccccc2)NC(=O)[C@@H](C(C)C)NC(=O)[C@@H]([C@H](C)CC)NC(=O)[C@H](NC(=O)[C@H](NC(=O)[C@H](CCCN)NC(=O)[C@H]2CCCN2C(=O)[C@H](NC(=O)[C@@H](NC(=O)[C@H](CCCN)NC(=O)[C@H](NC(=O)CCCC(C)C)C(C)C)C(C)C)C(C)C)[C@H](C)CC)[C@H](C)OC(=O)[C@H](C(C)C)NC1=O"
  Units of measure: "nM"
  Experimental result: 1400

---

System: LNCaP
Test: Cytotoxicity against human LNcaP cells after 48 hrs by SRB assay
Format: functional
Each entry below carries its recorded GI50.
Readout label: GI50 (nM)

- Compound smiles: "C/C=C1\\NC(=O)[C@H](Cc2ccccc2)NC(=O)[C@@H](C(C)C)NC(=O)[C@@H]([C@H](C)CC)NC(=O)[C@H](NC(=O)[C@H](NC(=O)[C@H](CCCN)NC(=O)[C@H]2CCCN2C(=O)[C@H](NC(=O)[C@@H](NC(=O)[C@@H](NC(=O)[C@H](NC(=O)CCCCCCCCCC)C(C)C)[C@@H](C)O)C(C)C)C(C)C)[C@H](C)CC)[C@H](C)OC(=O)[C@H](C(C)C)NC1=O"
  Readout label: "GI50"
  Experimental result: 423
- Compound smiles: "C/C=C1\\NC(=O)[C@H](Cc2ccccc2)NC(=O)[C@@H](C(C)C)NC(=O)[C@@H]([C@H](C)CC)NC(=O)[C@H](NC(=O)[C@H](NC(=O)[C@H](CCCN)NC(=O)[C@H]2CCCN2C(=O)[C@H](NC(=O)[C@H](CCC2CCCCC2)NC(=O)[C@@H](NC(=O)[C@H](NC(=O)CCCC(C)C)C(C)C)[C@@H](C)O)C(C)C)[C@H](C)CC)[C@H](C)OC(=O)[C@H](C(C)C)NC1=O"
  Readout label: "GI50"
  Experimental result: 639
- Compound smiles: "C/C=C1\\NC(=O)[C@H](Cc2ccccc2)NC(=O)[C@@H](C(C)C)NC(=O)[C@@H]([C@H](C)CC)NC(=O)[C@H](NC(=O)[C@H](NC(=O)[C@H](CCC(=O)O)NC(=O)[C@H]2CCCN2C(=O)[C@H](NC(=O)[C@@H](NC(=O)[C@@H](NC(=O)[C@H](NC(=O)CCCC(C)C)C(C)C)[C@@H](C)O)C(C)C)C(C)C)[C@H](C)CC)[C@H](C)OC(=O)[C@H](C(C)C)NC1=O"
  Readout label: "GI50"
  Experimental result: 1880
